The following molecules are listed with their measured MIC values.
# Tested on: P. stuartii PS71
# MEASUREMENT DESCRIPTION: Broth microtiter dilution MIC, PS71
# Type: cell-based
# MEASUREMENT CONDITIONS: Providencia stuartii, TEM-1 (A), SHV-5 (A), VEB-1 (A), VIM-1 (B), without cyclic boronate 2 supplementation, read-out: MIC (mg/liter) for β-lactam

Example entries and their recorded answers appear below.
{"MOLECULE": "CCN1CCN(C(=O)N[C@@H](C(=O)N[C@@H]2C(=O)N3[C@@H]2SC(C)(C)[C@@H]3C(=O)O)c2ccccc2)C(=O)C1=O", "MIC": "> 64 mg/L"}
{"MOLECULE": "CC(C)(O/N=C(\\C(=O)N[C@@H]1C(=O)N2C(C(=O)[O-])=C(C[n+]3ccccc3)CS[C@H]12)c1csc(N)n1)C(=O)O", "MIC": "> 16 mg/L"}
{"MOLECULE": "CO/N=C(\\C(=O)N[C@@H]1C(=O)N2C(C(=O)O)=C(CSc3nc(=O)c(=O)[nH]n3C)CS[C@H]12)c1csc(N)n1", "MIC": "> 32 mg/L"}

-- ask Supply recorded MIC for `Cc1nnc(SCC2=C(C(=O)O)N3C(=O)[C@@H](NC(=O)Cn4cnnn4)[C@H]3SC2)s1` here.
-- reply > 16 mg/L

-- ask Supply recorded MIC for `CC1(C)S[C@@H]2[C@H](NC(=O)[C@H](N)c3ccccc3)C(=O)N2[C@H]1C(=O)O` here.
-- reply > 16 mg/L

-- ask Supply recorded MIC for CO/N=C(\C(=O)N[C@@H]1C(=O)N2C(C(=O)[O-])=C(C[N+]3(C)CCCC3)CS[C@H]12)c1csc(N)n1 [FEP, cefepime] here.
-- reply > 32 mg/L
